Source listed as the supplement of paper PMC8728848.

Target: Glc(a1-4)Glc(a1-4)Glc(a1-4)Glc
Assay: glycan array binding signal (z-score within array); higher = stronger binding
Conditions: glycan notation: IUPAC condensed, linker removed
This is one part of a sample in which the strongest signals are shown more often than they occur.
recorded_metric: glycan array binding signal (z-score)

binder	assay_result
Pwp6 (Candida glabrata) (protein) MGSSHHHHHHSSGLVPRGSHMASANLPKLTNICQIPDNVKKTSGFKGEIRRIGLFPPGGDYTYLLKFPSTGSTASDTISLTTKPQLSTSGWFPSLFGHTYFIKADLLVYMVAYFVPTETGEYTFKLVNSDDAAVMYVGNPSAFPCGSIDTWPEPRKEDINVCDKISASTKLYMEKGLAYPVRLVWYNGGGDGQFNAQFIDPSGTTHTDWNGYVWQYDACTDCDYK	-0.556

Now turn to the next binder.
For BabA (Helicobacter pylori), O52269_HELPY (protein) AEDDGFYMSAGYQIGEAAQMVKNTKGIQELSDNYENLSNLLTRYSTLNTLIKLSADPSAVNAARENLGASAKNLIGDTKNSPAYQAVLLAINAAVGFWNVVGYVTQCGGNANGQKSTSSTTIFNNEPGYRSTSITCSLNGHMPGYYGPMSIENFKKLNEAYQILQTALKNGLPALKENNGTVNVTYSYTCSGEGNDNCSLQTTGVTNQNNGTKTETQTIDGKSVTTTISSKVVDSQ the binder record lists glycan array binding signal (z-score) as 0.344
